Attribution: patent EP0059645A1

Kindly supply the reported RSAI values for the records listed here.
target: Chromosomal, constitutive beta-lactamase enzyme (Enterobacter cloacae, UniProt P05364); construct: Normally, therefore, the beta-lactamase has to be extracted from the cells for the purpose of the present invention; endogenous in cells; test: Competitive assay with nitrocefin (RSAI); assay type: biochemical, E. cloacae
Sequence (P05364 21-381): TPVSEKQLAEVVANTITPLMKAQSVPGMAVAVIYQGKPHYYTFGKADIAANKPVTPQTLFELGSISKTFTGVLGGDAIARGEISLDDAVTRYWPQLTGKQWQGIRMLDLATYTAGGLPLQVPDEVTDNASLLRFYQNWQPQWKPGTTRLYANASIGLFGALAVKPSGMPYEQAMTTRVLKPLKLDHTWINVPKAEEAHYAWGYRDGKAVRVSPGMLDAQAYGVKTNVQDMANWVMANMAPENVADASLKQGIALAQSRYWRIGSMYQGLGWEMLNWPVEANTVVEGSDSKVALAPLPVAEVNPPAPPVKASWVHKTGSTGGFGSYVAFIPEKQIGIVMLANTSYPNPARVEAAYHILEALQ
Numbers only.

Examples with answers:
structure-string	RSAI
CC(=O)OCC1=C(C(=O)O)N2C(=O)[C@@H](NC(=O)Cc3cccs3)[C@H]2SC1	0.6
CO/N=C(\C(=O)N[C@@H]1C(=O)N2C(C(=O)O)=CCS[C@H]12)c1csc(N)n1	0.1
O=C(Cc1cccs1)N[C@@H]1C(=O)N2C(C(=O)[O-])=C(C[n+]3ccccc3)CS[C@H]12	16

The record that follows has no RSAI shown yet.
May I ask what RSAI has been recorded for `CO/N=C(\C(=O)N[C@@H]1C(=O)N2C(C(=O)O)=C(COC(N)=O)CS[C@H]12)c1ccco1` ?
0.0002
